// provenance: PubChem BioAssay (Tox21)

- PROTOCOL_DESCRIPTION: qHTS assay to test for compound auto fluorescence at 535 nm (green) in HEK293 cell free culture (AID 720682)
- ASSAY_SETUP: cell-free medium, green autofluorescence 485/535 nm; series mostly up to 91.3 µM
Calls of active or inactive are those of the source. The call rests on the fitted dose curve; in most records, active means well fitted curve in the direction sought with a large enough effect in the repeat runs; inconclusive means weak or mixed curves; inactive means flat fitted curve, though single readings scatter.
READOUT_TYPE: activity change

Example entries begin here.
[
  {
    "COMPOUND": "Nc1nc(N)nc(-c2cc(Cl)ccc2Cl)n1",
    "activity change": "inactive"
  },
  {
    "COMPOUND": "OC1CCCc2ccccc21 (centres undefined)",
    "activity change": "inactive"
  },
  {
    "COMPOUND": "C=C(C)C(=O)OCCCCCCCCCC",
    "activity change": "inactive"
  },
  {
    "COMPOUND": "O=C(O)c1ccc2cc(C(=O)O)ccc2c1",
    "activity change": "inactive"
  },
  {
    "COMPOUND": "CCCCCCCCCCCCOCCOCCOCCOCCOCCOCCOCCOCCOCCO",
    "activity change": "inactive"
  },
  {
    "COMPOUND": "Cc1ccc(C(=O)O)cc1",
    "activity change": "inactive"
  }
]

Now, please, on to the next compound.
Request: Given the compound CC1(C)CCC[C@]2(C)[C@H]3CCO[C@]3(C)CC[C@@H]12 , what is its reported activity change?
Result: inactive

###

- MEASURED_ON: Estrogen receptor (Homo sapiens) (UniProt P03372)
- Sequence (P03372 whole entry, looked up): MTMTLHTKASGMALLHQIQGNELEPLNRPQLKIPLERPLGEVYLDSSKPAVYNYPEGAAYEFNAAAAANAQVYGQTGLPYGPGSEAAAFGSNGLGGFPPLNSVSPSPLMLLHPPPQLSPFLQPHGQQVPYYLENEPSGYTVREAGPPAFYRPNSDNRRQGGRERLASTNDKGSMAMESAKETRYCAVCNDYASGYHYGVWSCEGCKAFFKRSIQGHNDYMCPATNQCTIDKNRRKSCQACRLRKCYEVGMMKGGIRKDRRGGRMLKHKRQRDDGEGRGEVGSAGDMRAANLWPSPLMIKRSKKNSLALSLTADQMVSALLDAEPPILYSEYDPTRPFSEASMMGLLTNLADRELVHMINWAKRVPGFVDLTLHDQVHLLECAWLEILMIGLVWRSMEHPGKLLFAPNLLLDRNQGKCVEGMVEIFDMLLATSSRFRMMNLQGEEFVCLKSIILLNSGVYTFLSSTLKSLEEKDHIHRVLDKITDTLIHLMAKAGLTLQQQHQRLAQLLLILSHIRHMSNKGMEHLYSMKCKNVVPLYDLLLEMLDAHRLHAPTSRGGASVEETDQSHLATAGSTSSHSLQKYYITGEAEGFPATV
- PROTOCOL_DESCRIPTION: qHTS assay to identify small molecule agonists of the estrogen receptor alpha (ER-alpha) signaling pathway using the BG1 cell line (AID 743079); further: nearly all actives have a fitted effect of over 20% in size
- ASSAY_SETUP: BG1Luc4E2 cells, ERE-luciferase agonist, 22 h; series mostly up to 70.3 µM
Inconclusive results are not listed. Activity calls are given as the source filed them. Calls follow the shape of the dose curve; as a rule, active = well fitted activation curve with a large enough effect in the repeat runs; inconclusive = weak or mixed curves, or effect the other way; inactive = no such curve, though single readings can be large or run the other way.
In this exercise, the only acceptable responses are 1 = active, -1 = inactive

[
  {
    "COMPOUND": "Cc1cc(C(C)(C)C)c(O)c(C)c1Cn1c(=O)n(Cc2c(C)cc(C(C)(C)C)c(O)c2C)c(=O)n(Cc2c(C)cc(C(C)(C)C)c(O)c2C)c1=O",
    "CAT": -1
  },
  {
    "COMPOUND": "C=CC(C)(CCC=C(C)C)OC=O (stereo unspecified)",
    "CAT": -1
  },
  {
    "COMPOUND": "CCc1cccc(CC)c1NC(=O)CN(CC(=O)O)CC(=O)O",
    "CAT": -1
  },
  {
    "COMPOUND": "CC(C)CCOC(=O)/C=C/c1ccccc1",
    "CAT": 1
  }
]

Request: Tell me the assay call for Cc1ccc(N/N=c2\c(=O)cc/c(=N\Nc3ccc(S(=O)(=O)O)cc3)c2=O)c(C)c1 please.
Result: -1

Request: Lookup Clc1sc(Cl)c(Cl)c1Cl
Result: -1

Request: And then CC(C)(c1cc(Br)c(OCC(Br)CBr)c(Br)c1)c1cc(Br)c(OCC(Br)CBr)c(Br)c1 (stereo unspecified) , what is it?
Result: -1

Request: Then this compound: CC[N+](CC)(CC)CCOC(=O)C(C1CCCC1)C1CCCC1
Result: -1

Request: Also check NC(=S)NC(N)=S
Result: -1

Request: Then what about the compound COC(=O)c1ccccc1OC ?
Result: -1

Request: Try the compound CCOC(=O)NNc1ccc(N(CC)CC(C)O)nn1 (stereo unspecified)
Result: -1

###

- PROTOCOL_DESCRIPTION: qHTS assay for small molecule agonists of the p53 signaling pathway - cell viability (AID 651633);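 further: p53RE-bla HCT reporter cells with a stable beta-lactamase p53 reporter; nearly all actives have a fitted effect of over 30% in size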
- ASSAY_SETUP: p53RE-bla HCT-116 viability, ATP luminescence, 16 h; series mostly up to 83.3 µM
Results filed as inconclusive are left out. Activity calls are given as the source filed them. The call rests on the fitted dose curve.
READOUT_TYPE: outcome

[
  {
    "SMILES_REPR": "Cc1c(C)c2c(c(C)c1OC(=O)c1cccnc1)CC[C@@](C)(CCC[C@H](C)CCC[C@H](C)CCCC(C)C)O2",
    "READOUT_TYPE": "outcome",
    "EXPERIMENTAL_RESULT": "inactive"
  },
  {
    "SMILES_REPR": "C[Si](Cl)(c1ccccc1)c1ccccc1",
    "READOUT_TYPE": "outcome",
    "EXPERIMENTAL_RESULT": "inactive"
  },
  {
    "SMILES_REPR": "O=S(=O)(O)c1ccc(Nc2nc(Nc3ccc(/C=C/c4ccc(Nc5nc(Nc6ccc(S(=O)(=O)O)cc6)nc(N(CCO)CCO)n5)cc4S(=O)(=O)O)c(S(=O)(=O)O)c3)nc(N(CCO)CCO)n2)cc1",
    "READOUT_TYPE": "outcome",
    "EXPERIMENTAL_RESULT": "inactive"
  }
]

###

- PROTOCOL_DESCRIPTION: qHTS assay to identify small molecule agonists of the progesterone receptor (PR) signaling pathway - cell viability counter screen (AID 1346799); further: nearly all actives have a fitted effect of over 45% in size
- ASSAY_SETUP: PR-UAS-bla HEK293T viability, CellTiter-Glo luminescence, 16 h; series mostly up to 92.4 µM
Records with an inconclusive call do not appear. The source made the active and inactive calls. The call rests on the fitted dose curve.
Just give me one of these, please: active, inactive

[
  {
    "COMPOUND": "COc1ccc2cc1Oc1ccc(cc1)C[C@H]1c3c(cc4c(c3Oc3cc5c(cc3OC)CCN(C)[C@@H]5C2)OCO4)CCN1C",
    "CAT": "inactive"
  },
  {
    "COMPOUND": "CCO[Si](OCC)(OCC)OCC",
    "CAT": "inactive"
  },
  {
    "COMPOUND": "CC[N+](CC)(CC)CCOC(=O)C(C1CCCC1)C1CCCC1",
    "CAT": "inactive"
  },
  {
    "COMPOUND": "OC[C@H]1O[C@H](O[C@H]2O[C@H](CO)[C@@H](O)[C@H](O)[C@H]2O)[C@H](O)[C@@H](O)[C@@H]1O",
    "CAT": "inactive"
  },
  {
    "COMPOUND": "Cc1ccc(C)cc1",
    "CAT": "inactive"
  }
]

Request: Tell me the recorded outcome of this test for O=C(Oc1ccccc1)Oc1ccccc1 .
Result: inactive

###

- MEASURED_ON: Aromatase (Homo sapiens)
- PROTOCOL_DESCRIPTION: qHTS assay to identify aromatase inhibitors (AID 743083); further: nearly all actives have a fitted effect of over 55% in size
- ASSAY_SETUP: MCF-7 aro ERE, testosterone-driven ERE luciferase, 24 h; series mostly up to 70.3 µM
Records with an inconclusive call do not appear. Calls of active or inactive are those of the source. The call rests on the fitted dose curve; in most records, active means well fitted inhibition curve with a large enough effect in the repeat runs; inconclusive means weak or mixed curves; inactive means no such curve, though single readings can be large or run the other way.
READOUT_TYPE: outcome

Solved cases below.
[
  {
    "COMPOUND": "CC(CCc1ccccc1)NCC(O)c1ccc(O)c(C(N)=O)c1 (stereo not drawn)",
    "EXPERIMENTAL_RESULT": "inactive"
  },
  {
    "COMPOUND": "Nc1nc(-c2ccccc2)cs1",
    "EXPERIMENTAL_RESULT": "inactive"
  },
  {
    "COMPOUND": "O=[N+]([O-])c1cccc(C(F)(F)F)c1",
    "EXPERIMENTAL_RESULT": "inactive"
  },
  {
    "COMPOUND": "OC12N=C(c3ccccc3)SC1Cc1cc(Cl)ccc12 (stereo not drawn)",
    "EXPERIMENTAL_RESULT": "inactive"
  },
  {
    "COMPOUND": "S=c1nccc[nH]1",
    "EXPERIMENTAL_RESULT": "inactive"
  }
]

Request: Return reported outcome; argument: CC(C)=CCC1=C(O)c2ccccc2C(=O)C1=O
Result: inactive

Request: Okay, and C=C(C)C(=O)OCCCCCCCCCC ?
Result: inactive

Request: Next compound: Cc1c(C)c2c(c(C)c1OC(=O)c1cccnc1)CC[C@@](C)(CCC[C@H](C)CCC[C@H](C)CCCC(C)C)O2
Result: inactive

Request: Another compound to look at: CCC(CC)(CC(=O)Nc1cccc(/C=C/c2nc(C3CCC3)cs2)c1)C(=O)O
Result: inactive

Request: Next entry: CC(=O)OCC=C(C)C
Result: inactive

Request: Then this compound: CCCCCc1ccc(Cl)cc1
Result: inactive

Request: Ok, now COc1ccc(-c2coc3cc(O)ccc3c2=O)cc1
Result: inactive

Request: Here is the next compound: Cc1ccc(-c2ccccc2)cc1
Result: inactive

###

- PROTOCOL_DESCRIPTION: qHTS assay for identifying genotoxic compounds that show differential cytotoxicity against isogenic chicken DT40 cell lines with known DNA damage response pathways - Rad54/Ku70 mutant cell line (AID 743015); further: nearly all actives have a fitted effect of over 60% in size
- ASSAY_SETUP: DT40 Rad54/Ku70 mutant viability, CellTiter-Glo, 40 h; series mostly up to 66.8 µM
Records with an inconclusive call do not appear. Activity calls are given as the source filed them. Calls follow the shape of the dose curve; as a rule, active = well fitted cell-killing curve with a large enough effect in the repeat runs; inconclusive = weak or mixed curves; inactive = no such curve, though single readings can be large or run the other way.
Could you please pick one outcome from this set? yes (1) = active, no (0) = inactive

Reference set (3 entries):
[
  {
    "COMPOUND": "OC[C@H]1O[C@H](O[C@H]2O[C@H](CO)[C@@H](O)[C@H](O)[C@H]2O)[C@H](O)[C@@H](O)[C@@H]1O",
    "CAT": "no (0)"
  },
  {
    "COMPOUND": "OCC(F)(F)F",
    "CAT": "no (0)"
  },
  {
    "COMPOUND": "Cc1c(C)c2c(c(C)c1OC(=O)c1cccnc1)CC[C@@](C)(CCC[C@H](C)CCC[C@H](C)CCCC(C)C)O2",
    "CAT": "no (0)"
  }
]

Request: So what was the verdict on NC(=O)c1cccc([N+](=O)[O-])c1 in this test?
Result: no (0)

Request: Cool, now FC(F)(F)c1cccc(Cl)c1
Result: no (0)

Request: Another compound to look at: CC/C=C\CCCCCO
Result: no (0)

Request: CC(C)OC(=O)C(O)(CC(=O)O)CC(=O)O ?
Result: no (0)
